Recorded values, source PubChem BioAssay.

Test: Nile Red efflux blockade in pump-expressing yeast – validation compound set, multiplex, phenotypic, pilot screen (AID 588506);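 note: Nile Red retained in cells so higher fluorescence means more efflux inhibition; 0 = negative control wells and 1 = enniatin B 25 µM full block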
Conditions: S. cerevisiae pump-expressing triplex, Nile Red efflux flow cytometry; at 10 µM; the pumps come from Candida albicans
Calls of active or inactive are those of the source.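 Rule for the calls: active = efflux inhibition above 0.42, the validation set average plus 4 SD; inconclusive = no clear call, values can overlap the other calls; inactive = the rest.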
Form entry, call: pick from active, inactive

| compound | assigned.class |
| --- | --- |
| COc1ccc(CNC(=O)N[C@H](C(=O)O)C(C)C)cc1OC | inactive |

# fetch the recorded call for CSCCC1NC2(C(=O)Nc3ccc(Cl)cc32)[C@@H]2C(=O)N(C3CCCC3)C(=O)[C@H]12 (stereo partly specified) here
inactive

# fetch the recorded call for "COc1ccc(/C=C(/C#N)c2cccnc2)cc1OC" here
inactive

# fetch the recorded call for "COc1ccc(N2CCN(C(=S)NCc3ccccc3)CC2)cc1" here
inactive

# fetch the recorded call for "COC(=O)CCC(=O)CN" here
inactive

# fetch the recorded call for CCC[C@@H]1C[C@@H](C(=O)N[C@H]([C@@H](C)O)[C@H]2O[C@H](SC)[C@H](O)[C@@H](O)C2O)N(C)C1 (stereo partly specified) here
inactive

# fetch the recorded call for "CC1=CC(=O)c2ccccc2C1=O" here
inactive

# fetch the recorded call for "NC(=O)c1cnccn1" here
inactive

# fetch the recorded call for CN(C)c1ccc(C(CN)c2c[nH]c3ccccc23)cc1 (stereo unspecified) here
inactive

# fetch the recorded call for "CCC(=O)c1ccc(OCc2ccc(C(=O)OC)cc2)cc1" here
inactive

# fetch the recorded call for "CC1=C(/C=C/C(C)=C/C=C/C(C)=C/C(=O)O)C(C)(C)CCC1" here
inactive

# fetch the recorded call for "C[C@]12CCC(=O)C=C1[C@H](O)C[C@@H]1[C@@H]2[C@@H](O)C[C@@]2(C)[C@H]1CC[C@]2(O)C(=O)CO" here
inactive

# fetch the recorded call for COc1ccc2[nH]c3c(c2c1)CCNC3C1CC=C(C)CC1 (stereo unspecified) here
inactive

# fetch the recorded call for "OCCN(CCO)c1nc(N2CCCCC2)c2nc(N(CCO)CCO)nc(N3CCCCC3)c2n1" here
inactive

# fetch the recorded call for "COC(=O)C1=CN(Cc2cccs2)C=C(C(=O)OC)C1c1cccc(Cl)c1" here
inactive

# fetch the recorded call for CC1(C)CC(C(CC(=O)O)c2ccccc2)CCO1 (stereo unspecified) here
inactive

# fetch the recorded call for "Cc1oncc1C(=O)Nc1ccc(C(F)(F)F)cc1" here
inactive

# fetch the recorded call for "Cc1occc(=O)c1O" here
inactive

# fetch the recorded call for "COc1cc(C(=O)NCCCCCC(=O)O)cc(OC)c1OC" here
inactive

# fetch the recorded call for CCCCCCCCNC(C)C(O)c1ccc(SC(C)C)cc1 (stereo unspecified) here
inactive

----------
The following compounds are listed with their measured double positive events values.
Assay: reduced mouse 2C T cell binding to pMHC/ICAM-1 vesicles – MLPCN validation set, flow cytometry, LFA-1/ICAM-1 modulator project, pilot screen (AID 2523)
Conditions: 2C mouse CD8+ T cells, at 7 µM, stronger effect = lower value; measured here: CD8+/vesicle+ event percentage
Field format: number, assumed %, no unit text.

Past entries and their recorded results:
| compound | unit.abbreviation | observed.result |
| --- | --- | --- |
| O=C(NCc1ccc2c(c1)OCO2)c1ccc2c(c1)OCCO2 | % | 61 |
| Cn1c([N+](=O)[O-])cnc1COC(N)=O | % | 62.7 |
| O=C(O)c1ccccc1C(=O)OCCCCOC(=O)c1ccccc1C(=O)O | % | 64.9 |
| O=C1c2ccccc2C2(c3ccccc3)NCCN12 (configuration not stated) | % | 59.5 |
| C#CCOc1ccc2c(C)cc(=O)oc2c1 | % | 60.4 |
| COc1ccc(CNCCC2(C(C)C)CCOC(C)(C)C2)cc1 (configuration not stated) | % | 55.9 |

Let us examine a further case.
Query (compound): "COc1ccc(C=O)c(OC)c1" ; field requested: double positive events
60.9
